Please provide measured bioavailability for the entries that follow.
# assay overview: Oral bioavailability in mouse at 10 mg/kg
# Format: ADME, organism-based
# recorded conditions: in vivo
One number for each entry, in %.

Completed entries (count: 2):
Problem: Identify bioavailability associated with the molecule CCN1CC[C@@H](c2cc3c(cc2-c2ccccc2F)OCC2=NNC(=O)[C@@H](C)N23)[C@@H](C)C1
Result: 38

Problem: Consider the molecule C[C@@H]1C(=O)NN=C2COc3cc(-c4ccccc4F)c([C@@H]4CCN(C)C4)cc3N21 . State its measured bioavailability.
Result: 110

Please find the next molecule below.
Problem: Write down bioavailability measured for item C[C@@H]1C(=O)NN=C2COc3cc(-c4ccccc4F)c(C4CCN(C)CC4)cc3N21
Result: 54

###

# assay overview: Half life in mouse at 3 mg/kg, iv or 10 mg/kg, po
# Assay type: ADME, organism-based
# recorded conditions: in vivo
I'd be grateful if you could share measured half-life for these entries.
One number for each entry, in h.

Would you please look over these solved cases?
Problem: Please look at this compound and report its half-life: C[C@@H]1C(=O)NN=C2COc3cc(-c4ccc5c(c4)OCCO5)c([C@@H]4CCN(C)C[C@@H]4C)cc3N21
Result: 3.2

Problem: Supply measured half-life of COc1ccc(-c2cc3c(cc2[C@@H]2CCN(C)C[C@@H]2C)N2C(=NNC(=O)[C@H]2C)CO3)cc1 in your reply.
Result: 9.6

Problem: For C[C@@H]1C(=O)NN=C2COc3cc(-c4ccccc4F)c(C4CCN(C)CC4)cc3N21 , write its half-life.
Result: 5.1

Problem: Provide only the value of recorded half-life for Cc1ccccc1-c1cc2c(cc1[C@@H]1CCN(C)C[C@@H]1C)N1C(=NNC(=O)[C@H]1C)CO2
Result: 3.3

Hi team, please reply with half-life for each item in this list.
1. C[C@@H]1CN(C)CC[C@@H]1c1cc2c(cc1-c1ccccc1F)OCC1=NNC(=O)[C@@H](C)N12
2. C[C@@H]1C(=O)NN=C2COc3cc(-c4ccccc4F)c([C@@H](C)C4(C)CN(C)C4)cc3N21
3. COc1ccc(-c2cc3c(cc2[C@@H]2CCN(C)C[C@@H]2C)N2C(=NNC(=O)[C@H]2C)CO3)c(F)c1
4. CCN1CC[C@@H](c2cc3c(cc2-c2ccccc2F)OCC2=NNC(=O)[C@@H](C)N23)[C@@H](C)C1
5. C[C@@H]1C(=O)NN=C2COc3cc(-c4ccccc4F)c(N(C)C4(C)CN(C)C4)cc3N21
6. Cc1ccc(-c2cc3c(cc2[C@@H]2CCN(C)C[C@@H]2C)N2C(=NNC(=O)[C@H]2C)CO3)cc1
7. Cc1ccc(-c2cc3c(cc2[C@@H]2CCN(C)C[C@@H]2C)N2C(=NNC(=O)[C@H]2C)CO3)c(F)c1

Result:
2.9
3.6
11.6
1.8
1.6
8.5
4.8

Give half-life for all compounds that follow.
1. COc1cccc(-c2cc3c(cc2[C@@H]2CCN(C)C[C@@H]2C)N2C(=NNC(=O)[C@H]2C)CO3)c1
2. C[C@@H]1C(=O)NN=C2COc3cc(-c4ccccc4)c(N(C)C4(C)CN(C)C4)cc3N21

Result:
[1.6, 1]

List reported half-life for each of these compounds:
1. C[C@@H]1C(=O)NN=C2COc3cc(-c4ccccc4F)c([C@@H]4CCN(C)C[C@@H]4C)cc3N21
2. C[C@@H]1C(=O)NN=C2COc3cc(-c4ccccc4F)c([C@@H]4CCNC[C@@H]4C)cc3N21
3. C[C@@H]1C(=O)NN=C2COc3cc(-c4ccccc4F)c([C@H]4CCN(C)C4)cc3N21
4. C[C@@H]1C(=O)NN=C2COc3cc(-c4ccccc4F)c(C4CCN(C)CC4(C)C)cc3N21 (some centres not stated)

Result:
1. 3.8
2. 9.7
3. 7.5
4. 2.6
